Biological target: rNav1.2 sodium channels (Rattus norvegicus, UniProt P04775)
Construct: host or cells: HEK-293
Sequence (P04775 whole entry): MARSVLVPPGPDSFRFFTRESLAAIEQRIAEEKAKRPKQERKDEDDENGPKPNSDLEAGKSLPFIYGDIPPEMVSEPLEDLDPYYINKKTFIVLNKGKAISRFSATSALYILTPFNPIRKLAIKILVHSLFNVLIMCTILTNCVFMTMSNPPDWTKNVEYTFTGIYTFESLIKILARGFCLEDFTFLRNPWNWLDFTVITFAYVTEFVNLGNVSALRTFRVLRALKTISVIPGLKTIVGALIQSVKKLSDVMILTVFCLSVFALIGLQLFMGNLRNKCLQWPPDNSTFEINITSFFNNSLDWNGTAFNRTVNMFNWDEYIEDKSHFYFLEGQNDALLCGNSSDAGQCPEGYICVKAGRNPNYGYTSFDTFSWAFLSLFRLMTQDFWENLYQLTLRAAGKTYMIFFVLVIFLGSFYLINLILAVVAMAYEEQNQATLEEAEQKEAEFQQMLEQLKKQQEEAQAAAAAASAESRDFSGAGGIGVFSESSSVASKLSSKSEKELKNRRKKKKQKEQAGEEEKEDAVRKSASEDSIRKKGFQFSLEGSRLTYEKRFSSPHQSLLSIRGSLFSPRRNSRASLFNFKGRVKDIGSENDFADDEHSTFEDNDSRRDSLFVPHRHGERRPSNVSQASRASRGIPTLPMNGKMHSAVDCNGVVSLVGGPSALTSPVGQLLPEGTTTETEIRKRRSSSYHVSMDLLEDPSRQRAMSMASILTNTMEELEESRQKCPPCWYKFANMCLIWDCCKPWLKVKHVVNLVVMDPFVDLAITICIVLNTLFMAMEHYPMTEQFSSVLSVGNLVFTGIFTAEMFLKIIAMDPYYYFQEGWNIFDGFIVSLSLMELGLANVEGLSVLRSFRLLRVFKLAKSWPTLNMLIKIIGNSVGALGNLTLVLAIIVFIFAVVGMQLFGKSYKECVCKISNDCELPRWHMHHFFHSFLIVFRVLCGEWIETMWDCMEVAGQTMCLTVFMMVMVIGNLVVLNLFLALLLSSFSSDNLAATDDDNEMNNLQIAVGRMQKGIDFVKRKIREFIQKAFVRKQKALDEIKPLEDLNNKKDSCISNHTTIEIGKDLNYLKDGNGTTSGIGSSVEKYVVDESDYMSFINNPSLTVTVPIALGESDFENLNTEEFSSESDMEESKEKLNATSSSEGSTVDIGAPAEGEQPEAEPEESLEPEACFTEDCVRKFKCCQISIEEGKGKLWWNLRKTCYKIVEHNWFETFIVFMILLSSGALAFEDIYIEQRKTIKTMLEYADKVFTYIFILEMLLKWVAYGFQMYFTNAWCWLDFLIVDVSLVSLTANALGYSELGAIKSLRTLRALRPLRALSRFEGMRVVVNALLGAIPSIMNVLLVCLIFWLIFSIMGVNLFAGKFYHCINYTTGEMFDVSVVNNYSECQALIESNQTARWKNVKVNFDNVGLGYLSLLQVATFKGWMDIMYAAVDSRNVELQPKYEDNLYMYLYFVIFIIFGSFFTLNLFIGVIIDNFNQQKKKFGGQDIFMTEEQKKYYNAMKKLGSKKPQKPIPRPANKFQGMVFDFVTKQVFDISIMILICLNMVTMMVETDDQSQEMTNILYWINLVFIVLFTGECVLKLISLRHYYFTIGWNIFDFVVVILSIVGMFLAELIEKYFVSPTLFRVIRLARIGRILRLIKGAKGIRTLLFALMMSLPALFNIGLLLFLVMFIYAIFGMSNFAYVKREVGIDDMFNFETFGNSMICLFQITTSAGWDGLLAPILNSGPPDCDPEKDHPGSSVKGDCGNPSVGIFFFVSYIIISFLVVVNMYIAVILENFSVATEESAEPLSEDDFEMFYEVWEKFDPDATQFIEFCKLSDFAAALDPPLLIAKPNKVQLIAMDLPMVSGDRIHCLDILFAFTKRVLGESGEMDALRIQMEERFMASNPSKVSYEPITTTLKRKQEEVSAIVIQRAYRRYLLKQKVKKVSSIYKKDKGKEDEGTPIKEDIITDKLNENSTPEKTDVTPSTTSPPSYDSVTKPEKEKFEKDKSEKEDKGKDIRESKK
Test: QPatch automated patch clamp, inhibition of sodium currents evoked by 5 Hz trains at three extracellular pH values
Type: cell-based
Conditions: pH=6.0; cc 1000 mM; read-out: Apparent Affinity
parameter-measured: pKd
Kindly note that pKd refers to -log10 of the concentration in mol/L and answer with the value alone.

Query block: Look up pKd for this molecule: CCN(CC)CC(=O)Nc1c(C)cccc1C
Result block: 2.78

====

Biological target: rNav1.2 sodium channels (Rattus norvegicus)
Construct: host or cells: HEK-293
Test: QPatch automated patch clamp, inhibition of sodium currents evoked by 5 Hz trains at three extracellular pH values
Format: cell-based
Conditions: pH 8.6; concentration (lidocaine 300 μM, memantine 30 μM)
parameter-measured: τonset (s)
Give a bare numeral; the unit s is implied.

Consider the reported τonset for these compounds:
C[Si](C)(Cc1ccc(F)cc1)CN1CCCCC1 | 7.80
Nc1nc2ccc(OC(F)(F)F)cc2s1 | 10.40
CC12CC3CC(C)(C1)CC(N)(C3)C2 [memantine] | 18.60
CN(C)CCCN1c2ccccc2Sc2ccc(Cl)cc21 | 29.40
Cc1nc2sccn2c(=O)c1CCN1CCC(=C(c2ccc(F)cc2)c2ccc(F)cc2)CC1 | 30.00
O=C(NCC1CCCCN1)c1cc(OCC(F)(F)F)ccc1OCC(F)(F)F (centres unmarked) [flecainide] | 7.60

Query block: What τonset value was documented for this compound, CCCCN1CCCCC1C(=O)Nc1c(C)cccc1C (centres unmarked) ?
Result block: 11.80

Query block: What measured τonset goes with CNCCC(Oc1ccccc1OC)c1ccccc1 (centres unmarked) ?
Result block: 10.60

Data origin: paper PMC4585259
